Every entry's value here was drawn from patent US10774074B2.

molecular target: human alpha2C receptors (Homo sapiens); assay: Determination of alpha2C antagonistic activity in vitro (FLIPR calcium assay, CHO cells); settings: antagonism of adrenaline stimulation; CHO cells stably transfected with human alpha2C receptor and Gα16; intracellular calcium (FLIPR); read-out: Alpha 2C Adrenaline IC50
I'd be grateful if you could share measured IC50 for these entries.
Give bare numbers, in nM.

Below are worked cases with known answers.
compound: CN(C)C(=O)c1nsnc1N1CCN(C[C@H]2COc3ccccc3O2)CC1
IC50 [nM]: 0.09
--
compound: O=C1NCCN1c1nsnc1N1CCN(C[C@H]2COc3ccccc3O2)CC1
IC50 [nM]: 0.054
--
compound: c1ccc2c(c1)OC[C@H](CN1CCN(c3nncs3)CC1)O2
IC50 [nM]: 158
--
compound: Cc1c(C(C)(C)O)c(N2CCN(C[C@H]3COc4ccccc4O3)CC2)nn1C
IC50 [nM]: 0.3
--
compound: CC1CCN(c2nsnc2N2CCN(C[C@H]3COc4ccccc4O3)CC2)C1=O (stereo partly shown)
IC50 [nM]: 0.04

Your task in this section: give IC50 for each listed record.
1. O=C1CCCN1c1ncsc1N1CCN(C[C@H]2COc3ccccc3O2)CC1
2. CCOC(=O)c1c(N2CCN(C[C@H]3COc4ccccc4O3)CC2)nn(C)c1C
3. CC(=O)Nc1nsnc1N1CCN(C[C@H]2COc3ccccc3O2)CC1
4. COCc1nc(N2CCN(C[C@H]3COc4ccccc4O3)CC2)no1

1: 0.04; 2: 0.21; 3: 424; 4: 136

* * *

Target: human alpha2C receptors (Homo sapiens)
Construct: host or cells: CHO cells, cotransfected with pCEP-Gα16
Sequence (P18825 1-462): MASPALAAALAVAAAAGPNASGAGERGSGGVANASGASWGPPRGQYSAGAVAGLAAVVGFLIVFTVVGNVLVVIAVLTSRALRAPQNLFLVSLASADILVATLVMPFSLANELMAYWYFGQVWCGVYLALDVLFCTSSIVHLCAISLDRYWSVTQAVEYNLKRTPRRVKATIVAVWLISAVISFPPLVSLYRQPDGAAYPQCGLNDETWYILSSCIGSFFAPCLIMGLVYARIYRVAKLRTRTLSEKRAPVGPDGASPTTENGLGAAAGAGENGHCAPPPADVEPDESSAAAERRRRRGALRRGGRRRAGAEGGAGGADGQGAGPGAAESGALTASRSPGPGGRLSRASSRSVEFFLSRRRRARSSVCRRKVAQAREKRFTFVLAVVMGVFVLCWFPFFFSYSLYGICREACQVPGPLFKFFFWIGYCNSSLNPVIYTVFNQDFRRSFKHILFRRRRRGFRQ
Assay: Determination of alpha2C antagonistic activity in vitro (FLIPR calcium assay, CHO cells)
Assay type: cell-based
Details: Kb calculated with the Cheng-Prusoff equation from IC50; adrenaline as agonist; CHO cells, human alpha2C; read-out: Alpha 2C Adrenaline Kb
I'd be grateful if you could share measured Kb for these entries.
Give bare numbers, in nM.

compound: O=C1CCCN1c1nsnc1N1CCN(C[C@H]2COc3ccccc3O2)CC1
Kb [nM]: 0.546

Your task in this section: give Kb for each listed record.
1. c1ccc2c(c1)OC[C@H](CN1CCN(c3nncs3)CC1)O2
2. CN1CCN(c2nsnc2N2CCN(C[C@H]3COc4ccccc4O3)CC2)C1=O

1: 1570; 2: 1070
